IC50 values recorded for HCV RdRp (NS5B) (UniProt P26663)
Endpoint Label: IC50

INSERT INTO assay_data (molecule, endpoint_label, experimental_result) VALUES
  ('Cc1ccc(NC(=O)C(CCCCN)NC(=O)Nc2ccccc2-c2ccccc2)cc1 (stereo not shown)', 'IC50', '> 50 µM'),
  ('CC(C)(NC(=O)OCC1c2ccccc2-c2ccccc21)C(=O)Nc1ccc(C=CC(=O)O)cc1', 'IC50', '> 50 µM'),
  ('Cc1ccc(NC(=O)[C@H](CCCCN)NC(=O)CNCCc2ccccc2)cc1', 'IC50', '> 50 µM'),
  ('Cc1cc2cc(NC(=O)[C@H](CCNC(=O)CN)NC(=O)Nc3ccc4c(c3)Cc3ccccc3-4)ccc2[nH]1', 'IC50', '10 to 50 µM');

----------
molecular target: HCV RdRp (NS5B) (UniProt P26663); type: biochemical, hepatitis C virus
Sequence (P26663 whole entry, looked up): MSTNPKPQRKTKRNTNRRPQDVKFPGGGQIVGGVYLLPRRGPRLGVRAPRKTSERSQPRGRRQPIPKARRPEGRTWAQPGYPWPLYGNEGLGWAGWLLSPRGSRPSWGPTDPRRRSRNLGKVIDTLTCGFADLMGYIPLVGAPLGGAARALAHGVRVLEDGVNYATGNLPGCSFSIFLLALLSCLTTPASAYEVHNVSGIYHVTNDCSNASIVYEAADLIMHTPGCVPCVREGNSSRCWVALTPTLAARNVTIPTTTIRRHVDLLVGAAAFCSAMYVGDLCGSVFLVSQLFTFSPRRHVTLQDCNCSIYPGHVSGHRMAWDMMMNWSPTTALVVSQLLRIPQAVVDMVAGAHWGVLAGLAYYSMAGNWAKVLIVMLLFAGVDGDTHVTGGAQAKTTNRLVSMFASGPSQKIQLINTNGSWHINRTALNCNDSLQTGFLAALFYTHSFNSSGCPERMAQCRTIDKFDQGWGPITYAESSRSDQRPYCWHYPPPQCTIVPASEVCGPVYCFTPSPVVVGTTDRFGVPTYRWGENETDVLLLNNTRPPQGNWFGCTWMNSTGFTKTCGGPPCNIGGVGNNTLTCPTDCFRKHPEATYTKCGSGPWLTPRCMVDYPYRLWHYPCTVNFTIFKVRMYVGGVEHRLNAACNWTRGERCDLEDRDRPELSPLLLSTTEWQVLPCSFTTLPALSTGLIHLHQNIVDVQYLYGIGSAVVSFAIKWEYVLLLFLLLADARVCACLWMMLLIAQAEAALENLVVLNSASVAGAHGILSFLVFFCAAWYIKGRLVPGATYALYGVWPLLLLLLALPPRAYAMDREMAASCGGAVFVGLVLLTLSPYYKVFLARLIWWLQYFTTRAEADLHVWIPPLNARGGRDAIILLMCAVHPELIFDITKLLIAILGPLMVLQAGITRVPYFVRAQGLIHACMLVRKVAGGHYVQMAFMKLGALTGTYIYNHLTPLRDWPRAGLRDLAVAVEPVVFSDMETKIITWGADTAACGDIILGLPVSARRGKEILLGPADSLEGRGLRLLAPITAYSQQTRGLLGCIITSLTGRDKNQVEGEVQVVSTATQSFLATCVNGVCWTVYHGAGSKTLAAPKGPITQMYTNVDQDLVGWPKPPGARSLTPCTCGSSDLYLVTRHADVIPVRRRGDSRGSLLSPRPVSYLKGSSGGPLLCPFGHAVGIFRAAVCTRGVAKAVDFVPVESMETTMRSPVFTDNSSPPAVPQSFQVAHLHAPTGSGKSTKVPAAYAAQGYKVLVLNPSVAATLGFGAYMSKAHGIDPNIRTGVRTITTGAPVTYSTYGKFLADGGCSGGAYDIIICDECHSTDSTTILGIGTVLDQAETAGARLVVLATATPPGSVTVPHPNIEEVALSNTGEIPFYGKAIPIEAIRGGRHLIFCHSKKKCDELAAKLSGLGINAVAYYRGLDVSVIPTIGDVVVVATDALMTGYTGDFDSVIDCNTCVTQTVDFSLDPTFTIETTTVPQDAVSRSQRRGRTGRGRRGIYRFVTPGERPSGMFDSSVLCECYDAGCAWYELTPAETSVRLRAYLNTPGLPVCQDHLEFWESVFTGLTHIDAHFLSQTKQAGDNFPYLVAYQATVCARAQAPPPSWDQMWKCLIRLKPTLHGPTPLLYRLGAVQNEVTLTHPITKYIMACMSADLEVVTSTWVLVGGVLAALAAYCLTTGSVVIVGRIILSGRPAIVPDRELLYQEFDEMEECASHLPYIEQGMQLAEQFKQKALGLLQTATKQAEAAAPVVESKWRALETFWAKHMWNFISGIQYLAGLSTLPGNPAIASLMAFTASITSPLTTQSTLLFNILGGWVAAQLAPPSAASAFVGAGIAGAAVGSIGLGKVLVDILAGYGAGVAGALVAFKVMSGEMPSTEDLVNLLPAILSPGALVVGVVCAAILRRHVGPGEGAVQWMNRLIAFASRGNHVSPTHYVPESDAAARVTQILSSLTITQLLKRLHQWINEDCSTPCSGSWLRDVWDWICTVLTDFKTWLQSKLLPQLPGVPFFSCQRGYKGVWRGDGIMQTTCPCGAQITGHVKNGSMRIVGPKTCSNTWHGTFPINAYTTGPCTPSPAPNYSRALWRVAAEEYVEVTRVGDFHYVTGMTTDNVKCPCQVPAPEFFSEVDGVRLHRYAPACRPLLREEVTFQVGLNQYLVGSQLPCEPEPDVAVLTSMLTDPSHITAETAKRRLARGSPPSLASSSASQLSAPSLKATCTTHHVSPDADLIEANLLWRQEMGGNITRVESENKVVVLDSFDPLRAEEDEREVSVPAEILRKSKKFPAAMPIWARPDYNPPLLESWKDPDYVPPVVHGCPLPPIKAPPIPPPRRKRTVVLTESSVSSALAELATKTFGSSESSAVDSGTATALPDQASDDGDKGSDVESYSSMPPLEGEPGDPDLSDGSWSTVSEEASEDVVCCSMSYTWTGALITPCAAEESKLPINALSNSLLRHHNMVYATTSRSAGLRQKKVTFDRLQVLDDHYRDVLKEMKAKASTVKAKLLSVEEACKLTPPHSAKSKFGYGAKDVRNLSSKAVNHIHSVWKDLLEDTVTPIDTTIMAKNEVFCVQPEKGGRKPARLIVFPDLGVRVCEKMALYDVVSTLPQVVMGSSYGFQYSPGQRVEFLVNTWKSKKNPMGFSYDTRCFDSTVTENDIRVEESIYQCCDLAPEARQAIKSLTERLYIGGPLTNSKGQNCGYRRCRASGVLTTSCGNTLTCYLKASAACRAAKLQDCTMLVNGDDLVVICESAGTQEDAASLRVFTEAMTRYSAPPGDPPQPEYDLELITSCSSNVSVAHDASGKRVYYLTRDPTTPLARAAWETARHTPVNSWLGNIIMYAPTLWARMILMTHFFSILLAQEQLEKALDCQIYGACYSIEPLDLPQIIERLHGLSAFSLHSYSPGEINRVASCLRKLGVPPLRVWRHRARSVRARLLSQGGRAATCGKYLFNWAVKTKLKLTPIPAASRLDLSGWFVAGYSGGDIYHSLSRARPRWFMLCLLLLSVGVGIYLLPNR
pIC50: −log10 of the molar value. Peptide text beside a SMILES is read from it. * marks the point of attachment. Fmoc = O=C(OCC1c2ccccc2-c2ccccc21)*; Boc = CC(C)(C)OC(=O)*
Below, each entry is listed alongside its reported pIC50.
Endpoint Label: pIC50

INSERT INTO results (compound, experimental_result) VALUES
  ('Cc1ccc(NC(=O)C(CCCCN)NC(=O)Nc2cccc3ccccc23)cc1 (stereo not drawn)', '< 4.30'),
  ('CC(C)(C)OC(=O)NCC(=O)NCc1ccccc1NC(=O)CNC(=O)OCC1c2ccccc2-c2ccccc21', '< 4.30'),
  ('CC(C)(C)c1ccc(NC(=O)[C@H](Cc2ccc(CN)cc2)NC(=O)Nc2ccc(-c3ccccc3)cc2)cc1', '> 5.00'),
  ('Cc1ccc(NC(=O)[C@H](CCCCN)NC(=O)CNc2ccc(Oc3ccccc3)cc2)cc1', '> 5.00'),
  ('Cc1ccc(NC(=O)C(CCCCN)NC(=O)Nc2ccc(-c3nc4ccc(C)cc4s3)cc2)cc1 (stereo not drawn)', '> 5.00'),
  ('Cc1ccc(NC(=O)C(Cc2cnc[nH]2)NC(=O)OCC2c3ccccc3-c3ccccc32)cc1 (stereo not drawn)', '< 4.30'),
  ('O=C(N[C@@H](Cc1c[nH]c2ccccc12)C(=O)N(Cc1ccccc1)C1CCCCC1)OCC1c2ccccc2-c2ccccc21', '< 4.30'),
  ('COC(=O)[C@H](Cc1c[nH]c2ccccc12)NC(=O)[C@H](CCCCNC(=O)OC(C)(C)C)NC(=O)OCC1c2ccccc2-c2ccccc21 [Compound 30] (Fmoc-Lys(Boc)-Trp-OMe)', '< 4.30'),
  ('Cc1ccc(NC(=O)C(CCCCN)NC(=O)Nc2ccc(-c3ccccc3)cc2)cc1 (stereo not drawn) [Compound 171]', '4.30 to 5.00'),
  ('NCCC[C@@H](NC(=O)OCC1c2ccccc2-c2ccccc21)C(=O)Nc1ccc(CN(C(=O)c2ccco2)C2CCCCC2)cc1', '> 5.00'),
  ('NCCCC[C@@H](NC(=O)Nc1ccc(OCc2ccccc2)cc1)C(=O)Nc1ccc(C2CCCCC2)cc1', '> 5.00'),
  ('Cc1ccc(NC(=O)C(CCN)NC(=O)OCC2c3ccccc3-c3ccccc32)cc1 (stereo not drawn) [Compound 400]', '< 4.30'),
  ('Cc1ccc(NC(=O)C(CCCCN)NC(=O)Nc2cccc(-c3nc4ccccc4o3)c2)cc1 (stereo not drawn) [Compound 257]', '< 4.30'),
  ('Cc1ccc(NC(=O)C(CCCCN)NS(=O)(=O)c2cc(S(=O)(=O)c3ccccc3)cs2)cc1 (stereo not drawn)', '< 4.30'),
  ('Cc1ccc(NC(=O)C(CO)NC(=O)OCC2c3ccccc3-c3ccccc32)cc1 (stereo not drawn)', '< 4.30');
